- Tested on: Pseudomonas aeruginosa strain H1001 fliC::luxCDABE
- Assay Name: Luminescence-based assay for the non-cleaved (bound) peptides on cellulose membranes
- Type: cell-based
- Measurement Parameters: cellulose-bound peptide, 60 min
Ends that are not written are not given here.
Each entry falls in a class defined on Luminescence at the given time in minutes: 60; the bands are L: < 2000 RLU; M: ≥ 2000 RLU and < 4000 RLU; H: ≥ 4000 RLU

// known answers, use as guide
Substance: AVRVRRRAILVI [Bac011]
Class Label: M
//
Substance: AAVRRRVRLVII [Bac010]
Class Label: L
//
Substance: VARIVVRLIRAR [Bac013]
Class Label: L

query: # bin label for RIVLRRAAVIRV [Bac039]
result: H

query: Okay, and RVLRVVRAAIRI [Bac035] ?
result: H

query: Okay, and ILRRVRVRAVAI-NH2 (C-terminus assumed) [Bac022] ?
result: H

query: Okay, and AVRAIRVLRVIR [Bac015] ?
result: M

query: Okay, and IAARRLIRVVRV [Bac012] ?
result: H

query: Okay, and RRRAIVRVVAIL [Bac023] ?
result: M

query: Okay, and VIALRIAVRRVR [Bac045] ?
result: L

---

Give measured MIC P. aerug for each item. Keep answers brief.
- System: Pseudomonas aeruginosa PAO1 strain H103
- Measurement Parameters: PAO1
Ends that are not written are not given here.
One number for each entry, in µg/mL.

// known answers, use as guide
Substance: RLARQVVIRVAR-NH2 (C-terminus assumed) [Bac289]
Target Of Assay: Pseudomonas aeruginosa PAO1 strain H103
MIC P. aerug, µg/mL: 16

Substance: RIWVIRWR-NH2 (C-terminus assumed) [Bac435]
Target Of Assay: Pseudomonas aeruginosa PAO1 strain H103
MIC P. aerug, µg/mL: 16

Substance: KIWVIRWR-NH2 (C-terminus assumed) [Bac434]
Target Of Assay: Pseudomonas aeruginosa PAO1 strain H103
MIC P. aerug, µg/mL: 16

query: Report MIC P. aerug for RLARIVVIRV-NH2 (C-terminus assumed) [Bac103] please.
result: 46

---

- Tested on: Pseudomonas aeruginosa strain H1001
- Assay Name: Assay for the cleaved (free, soluble) peptides from cellulose support, luminescence killing assay
- Format: cell-based
- Set-up: key: 1: Peptides showing stronger killing than Bac2A at a 4 to 8-fold higher dilution; Peptides showing stronger killing compared to that of Bac2A at a 4-fold higher dilution; 3: Peptides similar to Bac2A; 4: Peptides similar to Bac2A at the highest concentration but demonstrating weaker killing at a 2-fold dilution; 5: Peptides giving very weak or no killing at a 2-fold dilution; 6: Peptides with weak killing activity at the highest concentration
- Measurement Parameters: free (cleaved) peptides, killing relative to Bac2A
Ends that are not written are not given here.
Is Activity Class Soluble at least 3? Then Satisfied. If not, Not satisfied.

// known answers, use as guide
Substance: RIVLRRAAVIRV [Bac039]
Class Label: Satisfied
//
Substance: AVRVRRRAILVI [Bac011]
Class Label: Satisfied
//
Substance: RRLVAIVAVRRI [Bac007]
Class Label: Satisfied
//
Substance: VRIRARRVILVA-NH2 (C-terminus assumed) [Bac006]
Class Label: Not satisfied

query: Reported Activity Class Soluble at or above 3? VRLRIRVAVIRA-NH2 (C-terminus assumed) [Bac034]
result: Not satisfied

---

- Tested on: Pseudomonas aeruginosa strain H1001 fliC::luxCDABE
- Assay Name: Luminescence-based assay for the non-cleaved (bound) peptides on cellulose membranes
- Assay type: cell-based
- Measurement Parameters: cellulose-bound peptide, 0 min
Reported Property: Luminescence at the given time in minutes: 0
Put your answer as a value accompanied by its unit after it.

// known answers, use as guide
Monomer Sequence: VIALVRARVRRI [Bac049]
Target Of Assay: Pseudomonas aeruginosa strain H1001 fliC::luxCDABE
Reading: 4926 RLU

Monomer Sequence: VIALRIAVRRVR [Bac045]
Target Of Assay: Pseudomonas aeruginosa strain H1001 fliC::luxCDABE
Reading: 4873 RLU

Monomer Sequence: RAIRVRRIVLAV [Bac037]
Target Of Assay: Pseudomonas aeruginosa strain H1001 fliC::luxCDABE
Reading: 4908 RLU

Would you mind giving Luminescence at the given time in minutes: 0 for every sequence in the list below?
1. IARRIVAVRLRV [Bac026]
2. VIVRLAARRVRI [Bac028]
3. VVIRAAIRRVRL [Bac038]
4. VVRALRRIIARV [Bac048]

result:
1. 4873 RLU
2. 5001 RLU
3. 5024 RLU
4. 5001 RLU

---

- Test system: Pseudomonas aeruginosa strain H1001 fliC::luxCDABE
- Assay Name: Luminescence-based assay for the non-cleaved (bound) peptides on cellulose membranes
- Type: cell-based
- Measurement Parameters: cellulose-bound peptide, 60 min
Reported Property: Luminescence at the given time in minutes: 60 (RLU)
Give bare numbers, in RLU.

// known answers, use as guide
Monomer Sequence: VIALVRARVRRI [Bac049]
Reading: 4106
--
Monomer Sequence: IILAVRAVRRVR [Bac029]
Reading: 3963

Now consider a different sequence.
query: Report Luminescence at the given time in minutes: 60 for VLARVVARRIRI [Bac040] please.
result: 3951

---

Give measured Luminescence at the given time in minutes: 60 for each item. Keep answers brief.
- Tested on: Pseudomonas aeruginosa strain H1001 fliC::luxCDABE
- Assay Name: Luminescence-based assay for the non-cleaved (bound) peptides on cellulose membranes
- Format: cell-based
- Measurement Parameters: cellulose-bound peptide, 60 min
Ends that are not written are not given here.

Substance: ARIARRVRILVV [Bac021]
Reading: 1967 RLU
//
Substance: VIRRRRILAAVV-NH2 (C-terminus assumed) [Bac044]
Reading: 5652 RLU
//
Substance: RAIIRRVLVRVA [Bac024]
Reading: 4358 RLU
//
Substance: VIVRLAARRVRI [Bac028]
Reading: 5037 RLU
//
Substance: RLRVAIVAIVRR [Bac041]
Reading: 54 RLU

Would you mind giving Luminescence at the given time in minutes: 60 for every substance in the list below?
1. RVLIARVVRAIR [Bac027]
2. RRIARVIVAVLR [Bac002]

result:
1: 4421 RLU; 2: 135 RLU

---

Give measured Activity Class Soluble for each item. Keep answers brief.
- Tested on: Pseudomonas aeruginosa strain H1001
- Assay Name: Assay for the cleaved (free, soluble) peptides from cellulose support, luminescence killing assay
- Type: cell-based
- Parameters: key: 1: Peptides showing stronger killing than Bac2A at a 4 to 8-fold higher dilution; Peptides showing stronger killing compared to that of Bac2A at a 4-fold higher dilution; 3: Peptides similar to Bac2A; 4: Peptides similar to Bac2A at the highest concentration but demonstrating weaker killing at a 2-fold dilution; 5: Peptides giving very weak or no killing at a 2-fold dilution; 6: Peptides with weak killing activity at the highest concentration
- Measurement Parameters: free (cleaved) peptides, killing relative to Bac2A
One number for each entry.

Monomer Sequence: IVRVAVALRRIR [Bac005]
Activity Class Soluble: 3

Would you mind giving Activity Class Soluble for every sequence in the list below?
1. RRVIAIAVRRLV [Bac050]
2. RRVAIVVIARLR [Bac018]
3. VILARRRVRIAV [Bac017]

result:
[3, 2, 5]

Would you mind giving Activity Class Soluble for every sequence in the list below?
1. LAIVRRARVRIV [Bac031]
2. IARRIVAVRLRV [Bac026]
3. RARIVRVRVILA [Bac016]

result:
1: 5; 2: 3; 3: 2

Would you mind giving Activity Class Soluble for every sequence in the list below?
1. VIALRIAVRRVR [Bac045]
2. ILVIVRRRARAV [Bac042]

result:
[3, 3]
